System: RXF 393 renal
experimentDescription: NCI-60 one-dose screen, 48 h (100 = growth as untreated, 0 = no growth, -100 = all killed)
conditionParameters: 10 µM unless noted
The panel holds about 83,000 compounds, 20% with a hit somewhere; the sample as a whole holds those more often.
# binarize growth: threshold 70% inclusive, high side Fulfilled, low side Not fulfilled

{"columns": ["molecule", "assignedClass"],
 "data": [
  ["CCC(CC)(N(CC(=O)O)CC(=O)O)C(CC)(CC)N(CC(=O)O)CC(=O)O", "Fulfilled"],
  ["CC1(C)CC[C@]2(C(=O)O)CC[C@]3(C)C(=CC[C@@H]4[C@@]5(C)C[C@@H](Cc6cn([C@@H]7O[C@H](CO)[C@@H](O)[C@H](O)[C@H]7O)nn6)[C@H](O)C(C)(C)[C@@H]5CC[C@]43C)[C@@H]2C1", "Fulfilled"],
  ["Cn1cc(-c2nc(-c3c[nH]c4ccncc34)cs2)c2cc(Br)ccc21", "Not fulfilled"],
  ["CCN(CCO)CC(C)Nc1ccc([N+](=O)[O-])c2sc3ccccc3c(=O)c12 (stereo not drawn)", "Not fulfilled"],
  ["C/C(C=O)=C\\c1ccc2c(c1)OCO2", "Fulfilled"],
  ["Cc1ccc(O)c(NC(=O)c2ccc(CNc3ccnc(C(F)(F)F)c3)cc2)c1", "Fulfilled"],
  ["O=C(/C=C/c1ccc(Br)cc1)c1ccc(-n2cc(CN3CCN(c4cc5c(cc4F)c(=O)c(C(=O)O)cn5C4CC4)CC3)nn2)cc1", "Fulfilled"]
]}

---

System: BT-549 breast
experimentDescription: NCI-60 one-dose screen, 48 h
conditionParameters: 10 µM unless noted
About 83,000 compounds went through this panel and 20% of them were active in at least one assay; those are over-represented in the sample as a whole. Active and inactive are the calls of the source. How the source made its calls: active means growth percent below 10; inactive means the rest.
Possible outcomes: TRUE (active), FALSE (inactive)

{"columns": ["compound", "assignedClass"],
 "data": [
  ["COc1cc(-c2nc(SCCC(C)C)nc(N3CCOCC3)c2C#N)cc(OC)c1OC", "FALSE"],
  ["COC(=O)C1=Nc2ccc(F)cc2/C1=C\\c1sc(Nc2ccc(O)cc2)nc1O", "FALSE"],
  ["C#CC#CC#CC#CC#CC#CC#CC#CC[C@H]1OC[C@@H](COC(=O)O[C@@H](C(=O)O[C@H]2C[C@@]3(O)[C@@H](OC(=O)c4ccccc4)[C@@H]4[C@]5(OC(C)=O)CO[C@@H]5C[C@H](O)[C@@]4(C)C(=O)[C@H](OC(C)=O)C(=C2C)C3(C)C)[C@@H](NC(=O)c2ccccc2)c2ccccc2)O1", "FALSE"],
  ["Cc1cscc(C)c1=S", "FALSE"],
  ["Cc1ccc(C(=O)c2ccc(CC(=O)N/N=C/c3ccc(O)cc3O)n2C)cc1", "FALSE"],
  ["COc1cc(C(=O)c2c(-c3ccccc3)oc3c(OC)cccc23)cc(OC)c1O", "FALSE"],
  ["O=C(Nc1cccc(NC(=O)C2CCCCC2)c1)c1ccccn1", "FALSE"],
  ["C=CC(C)(O)CC/C=C(\\CO)C(=O)OC1C(C)OC(O[C@](C)(C=C)CC/C=C(\\CO)C(=O)O[C@H]2C[C@@]3(C(=O)OC4OC(CO)C(O)C(O)C4OC4OC(C)C(OC5OC(CO)C(O)C5O)C(OC5OC(CO)C(O)C(O)C5O)C4O)C(CC2(C)C)C2=CCC4[C@@]5(C)CC[C@H](OC6OC(COC7OC(C)C(O)C(O)C7OC7OCC(O)C(O)C7O)C(O)C(O)C6NC(C)=O)C(C)(C)C5CC[C@@]4(C)[C@]2(C)C[C@H]3O)C(O)C1O (stereo not given in full)", "FALSE"],
  ["CCOC(=O)n1cc(-c2nonc2-c2cn(C)c3ccccc23)c2ccccc21", "FALSE"],
  ["Cn1cc(-c2csc(-c3cn(C(=O)OC(C)(C)C)c4ccccc34)n2)c2ccnc(Cl)c21", "FALSE"],
  ["O=C(/C=C/c1ccccc1)Nc1ncc(Cc2ccccc2)s1", "FALSE"],
  ["O=C(Nc1ncc(Cc2ccccc2Cl)s1)c1cccs1", "FALSE"],
  ["CN1CCN(Cc2ccc(NC(=O)c3cncc(C#Cc4cnn5ccccc45)c3)cc2C(F)(F)F)CC1", "FALSE"],
  ["O=C1/C=C/[C@@H](O)[C@@H]2C[C@@H](O)C[C@H]2/C=C/CCC[C@H](CCOCc2ccccc2)O1", "TRUE"],
  ["Cc1ccc(-c2nc(C(Cl)Cl)nc3cc(C)nn23)cc1", "FALSE"],
  ["CCCC(O)Cn1ncc(C(=O)OCC)c1NC(=O)NCc1cccc(F)c1 (stereo not given)", "FALSE"],
  ["COc1ccc2[nH]cc(-c3nc(-c4cn(C)c5ccncc45)cs3)c2c1", "FALSE"],
  ["COc1cc(N2C(=O)[C@H](c3ccccc3)C2c2ccc(SC)cc2)cc(OC)c1OC (stereo not given in full)", "TRUE"],
  ["CC1(C)CCC(S(=O)(=O)c2ccc3c(c2)/C(=N\\O)c2cc(S(=O)(=O)N4CCN(c5ccc(F)cc5O)CC4)ccc2-3)CC1", "TRUE"],
  ["CN1C(=O)N(C)C2C1NC(=S)N2/N=C/C=C/c1ccccc1[N+](=O)[O-] (stereo not given)", "FALSE"],
  ["COc1ccccc1-n1c(-c2cc(O)ccc2C)cn2c3c(=O)[nH]c(=O)n(C)c3nc12", "FALSE"],
  ["COc1ccc(Nc2ncccc2NC(=O)c2cn(Cc3cccc(Oc4ccccc4)c3)nn2)cc1OC", "FALSE"],
  ["O=C(Cn1nnc2ccccc21)N/N=C/c1ccccc1F", "FALSE"],
  ["COc1ccc(Cc2nnc(Nc3nc4ccccc4s3)s2)cc1", "FALSE"],
  ["COc1cc(C(=O)c2c(N)ncn2-c2ccccc2)cc(OC)c1OC", "FALSE"],
  ["C=C(C)[C@@H]1CC[C@]2(CO)CC[C@]3(C)[C@H](CC[C@@H]4[C@@]5(C)CCC(NCCc6ccc(O)cc6)C(C)(C)[C@@H]5CC[C@]43C)[C@@H]12 (stereo not given in full)", "FALSE"],
  ["Cc1c(N2CN3C[C@H](C)N4CN(c5c(C)n(C)n(-c6ccccc6)c5=O)CN5C[C@@H](C)N(C2)C3C54)c(=O)n(-c2ccccc2)n1C (stereo not given in full)", "FALSE"],
  ["CCN1CCN(CC(=O)Nc2nc3ccc(NCc4ccc(Br)cc4)cc3s2)CC1", "FALSE"],
  ["CC[C@]12C=CCN3CC[C@@]4(c5ccc(OC)cc5N(C)[C@H]4[C@@](O)(C(=O)OC)[C@@H]1OC(=O)CCCN1CCOCC1)[C@@H]32", "FALSE"],
  ["Cc1ccc(Nc2nc(-c3ccc(F)cc3)c(C#N)c(=O)n2C)cc1", "FALSE"],
  ["C=CCn1c(SCC(=O)Nc2ccc(C(=O)/C=C/c3cc(OC)c(OC)c(OC)c3)cc2)nnc1-c1cc(-c2ccc(OC)cc2)nc2ccccc12", "FALSE"],
  ["CC(=O)Nc1c(Cl)cc(Cl)c2c1Cc1cc([N+](=O)[O-])ccc1-2", "FALSE"],
  ["COc1ccc(OC)c(-c2cn3nc(-c4c[nH]c5ccc(Br)cc45)sc3n2)c1", "FALSE"],
  ["Nc1ccc([N+](=O)[O-])cc1N=C/C=C/c1ccccc1", "FALSE"],
  ["O=C(Nc1ccccc1O)c1ccccc1Nc1ccnc(C(F)(F)F)c1", "FALSE"]
]}

---

Test system: K-562 leukemia
experimentDescription: NCI-60 one-dose screen, 48 h (100 = growth as untreated, 0 = no growth, -100 = all killed)
conditionParameters: 10 µM unless noted
Compounds without any hit were thinned out: in the full panel of roughly 83,000, 20% have a hit.
Response field label takes Y when growth is strictly below 20% and N in all other cases.

{"columns": ["compound", "subjectOfTest", "assignedClass"],
 "data": [
  ["O=C(c1ccc(F)c(Cl)c1)N1c2ccccc2Sc2ccccc21", "K-562 leukemia", "N"],
  ["COc1ccc(C2C(C#N)=C(N)Oc3c2sc2c(Br)cccc32)cc1 (stereo not given)", "K-562 leukemia", "Y"],
  ["Cc1ccc(C)c(-n2c(-c3ccc(Br)cc3)csc2=NC(=O)c2ccccc2F)c1", "K-562 leukemia", "N"],
  ["O=C1NC(=O)c2c1c1c3ccccc3[nH]c1c1oc3ccc(F)cc3c21", "K-562 leukemia", "N"],
  ["CCn1cc(CNc2ccc(C(=O)Nc3cc4cc(OC)c(OC)cc4c(C)n3)cc2)c(C)n1", "K-562 leukemia", "Y"]
]}

---

System: CAKI-1 renal
experimentDescription: NCI-60 one-dose screen, 48 h (100 = growth as untreated, 0 = no growth, -100 = all killed)
conditionParameters: 10 µM unless noted
The panel holds about 83,000 compounds, 20% with a hit somewhere; the sample as a whole holds those more often.
readoutLabel: growth (%)

{"columns": ["compound", "subjectOfTest", "reportedResult"],
 "data": [
  ["C=CC(=O)NCCOc1cccc(Nc2cc(NCCCNC(=O)C3CCC3)c(Br)cn2)c1", "CAKI-1 renal", -38.2],
  ["C/C(C=O)=C\\c1ccc2c(c1)OCO2", "CAKI-1 renal", 107],
  ["COCC[C@H]1CCC/C=C/[C@@H]2C[C@H](O)C[C@H]2[C@H](O)/C=C/C(=O)O1", "CAKI-1 renal", -18.6],
  ["O=C(Nc1cccc(NC(=O)C2CCCCC2)c1)c1ccccn1", "CAKI-1 renal", 94.9],
  ["CCOC(=O)c1c(C)nc2c(c1N)CC(=O)N2Cc1cc(OC)c(OC)c(OC)c1", "CAKI-1 renal", 50.6],
  ["Cc1ccc(/C=C/C(=O)c2ccc(NC(=O)CSc3nc4c([nH]3)c(=O)n(C)c(=O)n4C)cc2)c(C)c1", "CAKI-1 renal", 48.1],
  ["O=C(Nc1cccnc1Nc1ccc(Cl)cc1)c1cn(Cc2ccc(F)cc2)nn1", "CAKI-1 renal", 93.1],
  ["O=C1OCC2=C1C(c1cccc(C(F)(F)F)c1)c1cc3c(cc1N2CCO)OCO3 (stereo not given)", "CAKI-1 renal", 26.8],
  ["S=c1[nH]c2cc(Cl)ccc2o1", "CAKI-1 renal", 97.8],
  ["Cc1cc2nc(-c3c(-c4ccc(F)cc4)nc4sccn34)[nH]c2cc1C", "CAKI-1 renal", 89.9],
  ["CC1(C)CC[C@]2(C(=O)O)CC[C@]3(C)C(=CC[C@@H]4[C@@]5(C)C[C@@H](Cc6cn([C@@H]7O[C@H](CO)[C@@H](O)[C@H](O)[C@H]7O)nn6)[C@H](O)C(C)(C)[C@@H]5CC[C@]43C)[C@@H]2C1", "CAKI-1 renal", 98.3],
  ["N#CC(C#N)N=Nc1ccc(Cl)cc1Cl", "CAKI-1 renal", 70.8],
  ["Cc1c2ccccc2nc2c1ccc1cccnc12", "CAKI-1 renal", 77],
  ["Cc1nc2ccccc2c(/C=C/c2ccc(C(F)(F)F)cc2)c1C(=O)/C=C/c1ccccc1", "CAKI-1 renal", 0.887],
  ["CC/C=C\\C/C=C/C=C1/C(=O)C=C[C@@H]1C/C=C\\CCCC(=O)OC", "CAKI-1 renal", 29.7],
  ["CCOC(=O)CSc1nc2sc3c(c2c(=O)n1-c1ccc([N+](=O)[O-])cc1)CCCCC3", "CAKI-1 renal", 51.2],
  ["CCCCCCCCNc1cc2c3c(c1)CCCN3CCC2", "CAKI-1 renal", 38.6],
  ["COc1cc(-c2nc3occn3c2-c2ccnc(NCCCNS(=O)(=O)c3ccccc3)n2)ccc1F", "CAKI-1 renal", 29.7],
  ["Oc1c(I)cc(-c2nc3ccccc3s2)cc1CN(Cc1ccccn1)Cc1ccccn1", "CAKI-1 renal", 5.39],
  ["Cc1cccc(NC(=O)CSc2nc3ccc([N+](=O)[O-])cc3[nH]2)c1", "CAKI-1 renal", 61.4],
  ["O=C1c2cccnc2C(=O)c2c1c(C(=O)OCCCN1CCCCC1)c1ccccn21", "CAKI-1 renal", -24],
  ["N#Cc1c(-c2ccccc2)c(C#N)c2c(C#N)c(N)nn2c1N", "CAKI-1 renal", 47],
  ["CCOC(=O)/C=C/c1c(C)[nH]c(=O)[nH]c1=O", "CAKI-1 renal", 63.8],
  ["CC(/C=C1\\SC(=S)N(CC(=O)NC(Cc2c[nH]c3ccccc23)C(=O)O)C1=O)=C\\c1ccccc1 (stereo not given)", "CAKI-1 renal", 87],
  ["O=C(/C=C/C12c3ccccc3C(c3ccccc31)C1C(=O)NC(=O)C12)c1ccccn1 (stereo not given)", "CAKI-1 renal", 16.9],
  ["COc1ccc(/C=C/C(=O)c2cc3c(N)c(C(=O)Nc4ccccc4C)sc3nc2C)cc1", "CAKI-1 renal", 23.3],
  ["FC(F)(F)c1[nH]ncc1-c1nc2c(N3CCCCC3)cc3[nH]ncc3c2c2c1CCCC2", "CAKI-1 renal", 5.43],
  ["CC12CCC(/C(=C/NNc3ccc([N+](=O)[O-])cc3[N+](=O)[O-])C1=O)C2(C)C (stereo not given)", "CAKI-1 renal", 46.8],
  ["Cc1ccc(S(=O)(=O)n2cc(C3C(Cl)C(=O)N3c3ccc(N4CCOCC4=O)cc3)c3ccccc32)cc1 (stereo not given)", "CAKI-1 renal", 24.9],
  ["CCN(CC)CCNC(=O)c1ccc(-c2nc3ccc4[nH]ncc4c3c3c2CCCC3)cc1", "CAKI-1 renal", 9.09],
  ["COc1ccc(/C=C/C(=O)c2cc3c(N)c(C(=O)Nc4ccc(OC)cc4)sc3nc2C)cc1", "CAKI-1 renal", 24.8],
  ["COc1cc2c(/C=C3\\C(=O)Nc4ccccc43)c(C(=O)O)[nH]c2cc1C", "CAKI-1 renal", 94.8],
  ["CC(C)CCC[C@@H](C)C1CCC2C3CCC4=C/C(=N/OCCN(C)C)CC[C@]4(C)C3CC[C@@]21C (stereo not given in full)", "CAKI-1 renal", 79.9],
  ["O=C1OCC2=C1C(c1cccc(F)c1)c1cc3c(cc1N2CCO)OCO3 (stereo not given)", "CAKI-1 renal", 23.8],
  ["CCN(CC)CCOc1ccc(Nc2ncc3cc(-c4ccc(O)cc4)c(=O)n(C)c3n2)cc1", "CAKI-1 renal", 26.4],
  ["c1ccc(CCc2ccccc2-c2cc(-c3ccccc3)on2)cc1", "CAKI-1 renal", 92.2],
  ["Nc1c(C(=O)O)cc(Cl)cc1[N+](=O)[O-]", "CAKI-1 renal", 111],
  ["N=C(N)c1ccc(-c2ccc(-c3ccc(Cl)cc3)o2)o1", "CAKI-1 renal", 54.2],
  ["N#Cc1nc2c(S(=O)(=O)c3ccccc3)c(N)n(Cc3cccnc3)c2nc1C#N", "CAKI-1 renal", 96.3],
  ["Cc1ccccc1CNc1c2ccccc2nc2ccccc12", "CAKI-1 renal", 25.1]
]}

Sourced from PubChem BioAssay (NCI)
